tested on: 324938-238-R-J1-PDC complex spheroid growth, % test/control; experiment: Anticancer human tumor 324938-238-R-J1-PDC patient-derived bladder carcinoma cell line growth inhibition [AhR]; conditions: second compound 0.1 µM; first compound 0.03 µM; stronger effect = lower value
Endpoint name: viability, T/C (%)
State just the number; it will be interpreted in %.

Nc1ncn(C2CC(O)C(CO)S2)c(=O)n1 (centres undefined) + Cc1cncc(-c2nc(NCCc3c[nH]c4ccccc34)c3ncn(C(C)C)c3n2)c1 ... 95.6
CCN(c1cc(-c2ccc(CN3CCOCC3)cc2)cc(C(=O)NCc2c(C)cc(C)[nH]c2=O)c1C)C1CCOCC1 + Cc1cncc(-c2nc(NCCc3c[nH]c4ccccc34)c3ncn(C(C)C)c3n2)c1 ... 135
O=C(C=Cn1cnc(-c2cc(C(F)(F)F)cc(C(F)(F)F)c2)n1)NNc1cnccn1 + Cc1cncc(-c2nc(NCCc3c[nH]c4ccccc34)c3ncn(C(C)C)c3n2)c1 ... 94.1

Next, consider the following compound.
Query: What value of measured viability, T/C is listed for CCN(c1cc(-c2ccc(CN3CCOCC3)cc2)cc(C(=O)NCc2c(C)cc(C)[nH]c2=O)c1C)C1CCOCC1 + CC(CO)NC(=O)c1cc(-c2ccc(Cl)cc2)nn(-c2cnn(C)c2)c1=O ?
Reply: 114

----------
Test system: 324938-238-R-J1-PDC complex spheroid growth, % test/control
Test: Anticancer human tumor 324938-238-R-J1-PDC cell line growth inhibition [AhR];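 also: spheroids exposed to agents for seven days before viability read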
Conditions: second compound 0.1 µM; first compound 0.00316 µM; stronger effect = lower value
Description: Multicellular complex tumor spheroid response to aryl hydrocarbon receptor antagonists in combination with a variety of drugs and investigational agents in selected tumor cell lines […] Compounds. […] If the clinical Cmax for an agent had not been determined, the highest concentration tested was 10 microM (Table 1). […]
Mark each entry Fulfilled if its viability, T/C sits below 90%, and Not fulfilled for all others.

Observe how each entry below is paired with its result.
Cn1ncnc1C1c2n[nH]c(=O)c3cc(F)cc(c23)NC1c1ccc(F)cc1 (stereo unspecified) + Cc1ccccc1N=Nc1ccc(NC(=O)c2ccnn2C)c(C)c1 ... Not fulfilled
Nc1ncn(C2CC(O)C(CO)O2)c(=O)n1 (stereo unspecified) + Cc1cncc(-c2nc(NCCc3c[nH]c4ccccc34)c3ncn(C(C)C)c3n2)c1 ... Not fulfilled
Cn1ncnc1C1c2n[nH]c(=O)c3cc(F)cc(c23)NC1c1ccc(F)cc1 (stereo unspecified) + CC(CO)NC(=O)c1cc(-c2ccc(Cl)cc2)nn(-c2cnn(C)c2)c1=O ... Fulfilled

Now let's try a different one.
Query: Lab note: confirm whether the reported viability, T/C for this molecule is below 90%, equality not counting. molecule: Cn1ncnc1C1c2n[nH]c(=O)c3cc(F)cc(c23)NC1c1ccc(F)cc1 (stereo unspecified) + Cc1cncc(-c2nc(NCCc3c[nH]c4ccccc34)c3ncn(C(C)C)c3n2)c1
Reply: Not fulfilled

----------
tested on: 324938-238-R-J1-PDC complex spheroid growth, % test/control; test: Anticancer human tumor 324938-238-R-J1-PDC cell line growth inhibition [AhR]; details: curve of first compound; second compound 10 µM;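 also: spheroids exposed to agents for seven days before viability read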
Endpoint name: IC50

# count of solved cases: 5
NS(=O)(=O)OCC1CC(n2ccc3c(NC4CCc5ccccc54)ncnc32)CC1O (stereo unspecified) + Cc1ccccc1N=Nc1ccc(NC(=O)c2ccnn2C)c(C)c1 ... 929 nM
COc1cc(Nc2ncc3c(n2)-c2ccc(Cl)cc2C(c2c(F)cccc2OC)=NC3)ccc1C(=O)O + Cc1ccccc1N=Nc1ccc(NC(=O)c2ccnn2C)c(C)c1 ... 71 nM
NS(=O)(=O)OCC1CC(n2ccc3c(NC4CCc5ccccc54)ncnc32)CC1O (stereo unspecified) + CC(CO)NC(=O)c1cc(-c2ccc(Cl)cc2)nn(-c2cnn(C)c2)c1=O ... 379 nM
CC[C@@]1(O)C(=O)OCc2c1cc1n(c2=O)Cc2cc3c(CN(C)C)c(O)ccc3nc2-1 + CC(CO)NC(=O)c1cc(-c2ccc(Cl)cc2)nn(-c2cnn(C)c2)c1=O ... 16.8 nM
Nc1ncn(C2CC(O)C(CO)O2)c(=O)n1 (stereo unspecified) + Cc1ccccc1N=Nc1ccc(NC(=O)c2ccnn2C)c(C)c1 ... > 1000 nM

Query: What value of measured IC50 is listed for O=C(C=Cn1cnc(-c2cc(C(F)(F)F)cc(C(F)(F)F)c2)n1)NNc1cnccn1 + CC(CO)NC(=O)c1cc(-c2ccc(Cl)cc2)nn(-c2cnn(C)c2)c1=O ?
Reply: 125 nM
